# Assayed target: T1, human GM-CSFRα-6His (human, UniProt P15509 23-320)
# T1 construct: pTT5-GMRa-6his (ECD), made in 293F cells; also called GMRah; GMRa-6his(ECD)
# T1 sequence: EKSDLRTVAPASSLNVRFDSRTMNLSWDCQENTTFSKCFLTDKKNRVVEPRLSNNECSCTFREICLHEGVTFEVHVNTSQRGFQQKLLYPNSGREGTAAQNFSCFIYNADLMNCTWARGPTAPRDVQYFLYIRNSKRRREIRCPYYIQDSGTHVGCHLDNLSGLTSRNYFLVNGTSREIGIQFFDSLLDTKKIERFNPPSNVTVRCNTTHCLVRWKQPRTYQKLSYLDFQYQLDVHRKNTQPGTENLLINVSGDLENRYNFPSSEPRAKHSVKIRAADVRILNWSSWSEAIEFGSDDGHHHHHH
# Test description: ELISA on human GM-CSFRα, antibodies as human IgG1; x axis 'Log Ab concentration', no unit

>  <Binder>
E34-IgG1 (antibody, V domains shown, human IgG1, human kappa) VH: QMQLVQSGAEVKKPGASVKVSCKVSGYTLTELSIHWVRQAPGKGLEWMGGFDPEDGETIYAQKFQGRVTMTGDTSTDTAYLELSSLRSEDTALYYCATGRYSFTDLAYGFDYWGQGTLVTVSS VL: EIVMTQSPATLSLSPGERATLSCRASQSVSSYLAWYQQKPGQAPRLLIYGASSRATGIPDRFSGSGSGTDFTLTISRLEPEDFAVYYCQQYDSSPPTFGQGTKLEIK

>  <binding result>
binds

$$$$
>  <Binder>
E27-IgG1 (antibody, V domains shown, human IgG1, human kappa) VH: QMQLVQSGAEVKKPGASVKVSCKVSGYTLTELSIHWVRQAPGKGLEWMGGFDPEDGETIYAQKFQGRVTMTGDTSTDTAYLELSSLRSEDTALYYCATGRYISFMFTYGFDYWGQGTLVTVSS VL: EIVMTQSPATLSLSPGERATLSCRASQSVSSYLAWYQQKPGQAPRLLIYGASSRATGIPDRFSGSGSGTDFTLTISRLEPEDFAVYYCQQYNNWPPTFGQGTKLEIK

>  <binding result>
binds

$$$$
>  <Binder>
E09-IgG1 (antibody, V domains shown, human IgG1, human kappa; also called E9) VH: QMQLVQSGAEVKKPGASVKVSCKVSGHTLTELSMHWVRQAPGKGLEWMGGFDPEDGETIYAQKFQGRVTMTGDTSTDTAYLELSSLRSEDTALYYCATGRYCGHASCYGFDYWGQGTLVTVSS VL: EIVMTQSPATLSLSPGERATLSCRASQSVSSYLAWYQQKPGQAPRLLIYGASSRATGIPDRFSGSGSGTDFTLTISRLEPEDFAVYYCQQYNNWPPTFGQGTKLEIK

>  <binding result>
binds

$$$$

Entry source: patent US20230002496A1
